Assign pEC50 to each entry below.
# tested.target: human CB1 receptors (Homo sapiens (Human))
# method.summary: cAMP assay, CHO cells expressing human CB1 receptors
# Assay type: cell-based
# test.context: CHO cells expressing human CB1, cAMP; read-out: human CB1 EC50
pEC50: −log10 of the molar value.

Q. Annotate the compound CC(C)(CCO)NC(=O)c1ccc(C2CC2)c(OCC2CC2)n1 [Example 194] with its measured pEC50.
A. < 5.00

Q. Annotate the compound C[C@@H](C#N)NC(=O)c1ccc(C2CC2)c(OCC2CC2)n1 [Example 246] with its measured pEC50.
A. 5.61

Q. Annotate the compound Cc1nc(C(C)(C)NC(=O)c2cccc(-c3cccc(Cl)c3)n2)no1 [Example 41] with its measured pEC50.
A. < 5.00

Q. Annotate the compound CC(C)C[C@H](NC(=O)c1ccc(C2CC2)c(Cc2ccc(F)cc2)n1)C(=O)O [Example 336] with its measured pEC50.
A. < 5.00

Q. Annotate the compound NC(=O)[C@H](CC1CC1)NC(=O)c1ccc(C2CC2)c(Cc2ccc(F)cc2)n1 [Example 326] with its measured pEC50.
A. 7.23

Q. Annotate the compound CCC(CC)(NC(=O)c1ccc(C2CC2)c(OCC2CC2)n1)C(=O)OC [Example 251] with its measured pEC50.
A. 7.04

Q. Annotate the compound O=C(NN1CCCOC1=O)c1ccc(C2CC2)c(OCC2CC2)n1 [Example 371] with its measured pEC50.
A. < 5.00

Q. Annotate the compound Cc1nc([C@@H](CC(C)C)NC(=O)c2ccc(C3CC3)c(OCC3CC3)n2)no1 [Example 243] with its measured pEC50.
A. 6.08

Q. Annotate the compound Cc1ccc(C(=O)N[C@@H](CC2CC2)c2nccs2)nc1OCC1CC1 [Example 65] with its measured pEC50.
A. < 5.00

Q. Annotate the compound Cc1nc([C@H](CC(C)C)NC(=O)c2cccc(S(=O)(=O)CC(C)C)n2)no1 [Example 335] with its measured pEC50.
A. < 5.00

Q. Annotate the compound CC(C)(NC(=O)c1ccc(C2CCCC2)c(OCC2CC2)n1)c1nccs1 [Example 55] with its measured pEC50.
A. 5.86

Q. Annotate the compound CC(C)CC(C)(NC(=O)c1ccc(C2CC2)c(OCC2CC2)n1)C(N)=O (centres unmarked) [Example 178] with its measured pEC50.
A. < 5.00

Q. Annotate the compound Cc1nc(C(C)(CC2CC2)NC(=O)c2ccc(N3CC(F)(F)C3)c(OCC3CC3)n2)no1 (centres unmarked) [Example 341] with its measured pEC50.
A. < 5.00

Q. Annotate the compound CCC(CC)(NC(=O)c1ccc(N(CC(F)(F)F)CC(F)(F)F)c(OCC2CC2)n1)C(=O)OC [Example 220] with its measured pEC50.
A. 6.89

Q. Annotate the compound Cc1noc(C(C)(C)NC(=O)c2ccc(C3CC3)c(OCC3CC3)n2)n1 [Example 176] with its measured pEC50.
A. < 5.00

Q. Annotate the compound O=C(N[C@@H](CC1CC1)C(=O)NN1CCC(O)C1)c1ccc(C2CC2)c(OCC2CC2)n1 (single isomer, unassigned; (-)) [Example 380] with its measured pEC50.
A. < 5.00

Q. Annotate the compound CNC(=O)[C@H](CC(C)C)NC(=O)c1cccc(-c2ccccc2)n1 [Example 205] with its measured pEC50.
A. < 5.00

* * *

# tested.target: human CB1 receptors (Homo sapiens (Human), UniProt P21554)
# Sequence (P21554 whole entry): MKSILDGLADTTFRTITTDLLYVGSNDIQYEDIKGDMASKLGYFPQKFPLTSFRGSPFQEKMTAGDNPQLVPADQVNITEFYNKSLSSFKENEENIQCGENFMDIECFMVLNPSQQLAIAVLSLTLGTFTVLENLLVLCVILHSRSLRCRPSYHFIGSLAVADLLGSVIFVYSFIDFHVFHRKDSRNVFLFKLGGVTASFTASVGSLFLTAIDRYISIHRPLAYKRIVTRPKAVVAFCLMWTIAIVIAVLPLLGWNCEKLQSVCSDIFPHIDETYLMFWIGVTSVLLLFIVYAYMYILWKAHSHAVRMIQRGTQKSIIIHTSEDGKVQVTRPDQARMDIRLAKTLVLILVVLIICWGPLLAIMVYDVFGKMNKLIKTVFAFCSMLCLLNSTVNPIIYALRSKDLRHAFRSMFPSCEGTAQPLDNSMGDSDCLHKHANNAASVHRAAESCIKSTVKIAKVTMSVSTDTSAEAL
# method.summary: cAMP assay, CHO cells expressing human CB1 receptors
# Format: cell-based
# test.context: CHO cells expressing human CB1, cAMP; read-out: human CB1 EC50
pEC50: −log10 of the molar value.
test.readout: pEC50

Q. Annotate the compound O=C(NNC1CCS(=O)(=O)C1)c1cccc(Cc2ccc(F)cc2)n1 (centres unmarked) with its measured pEC50.
A. < 5.00

Q. Annotate the compound `CC(C)(C)[C@H](NC(=O)c1ccc(N2CC(F)(F)C2)c(OCC2CC2)n1)C(=O)N1CC(F)(F)C1` with its measured pEC50.
A. < 5.00

Q. Annotate the compound `CCC(CC)(NC(=O)c1ccc(C(F)(F)F)c(OCC2CC2)n1)C(=O)NC` with its measured pEC50.
A. < 5.00

Q. Annotate the compound `CC(C)C[C@H](NC(=O)c1ccc(C2CC2)c(S(=O)(=O)CC(C)C)n1)C(N)=O` with its measured pEC50.
A. < 5.00

Q. Annotate the compound `Cc1nc([C@H](CC2CC2)NC(=O)c2ccc(C)c(OCC3CC3)n2)no1` with its measured pEC50.
A. < 5.00

Q. Annotate the compound `O=C(N[C@H](c1ccccn1)C(F)(F)F)c1cccc(Cc2ccc(F)cc2)n1` with its measured pEC50.
A. 6.45

Q. Annotate the compound `Cc1nc([C@](C)(NC(=O)c2ccc(C3CC3)c(S(=O)(=O)CC(C)C)n2)C2CC2)no1` with its measured pEC50.
A. 6.62

Q. Annotate the compound `CNC(=O)[C@H](CC(C)C)NC(=O)c1cccc(-c2cccc(C(F)(F)F)c2)n1` with its measured pEC50.
A. < 5.00

* * *

# tested.target: human CB2 receptors (Homo sapiens (Human), UniProt P34972)
# Sequence (P34972 whole entry): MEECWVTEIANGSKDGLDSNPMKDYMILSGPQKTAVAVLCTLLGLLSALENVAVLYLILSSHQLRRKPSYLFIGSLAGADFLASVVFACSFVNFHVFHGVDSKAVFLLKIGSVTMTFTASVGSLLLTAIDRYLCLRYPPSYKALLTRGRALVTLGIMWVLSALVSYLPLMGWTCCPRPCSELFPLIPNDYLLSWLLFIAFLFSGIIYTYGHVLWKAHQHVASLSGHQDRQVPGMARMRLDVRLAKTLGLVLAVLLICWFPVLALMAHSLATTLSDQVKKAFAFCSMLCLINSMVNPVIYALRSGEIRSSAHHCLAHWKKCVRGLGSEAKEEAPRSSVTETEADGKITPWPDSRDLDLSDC
# method.summary: cAMP assay, CHO cells expressing human CB2 receptors
# Type: cell-based
# test.context: CHO cells expressing human CB2, cAMP; read-out: human CB2 EC50
Assign pEC50 to each entry below.
// pEC50: -log10(molar conc.)

Q. Annotate the compound `O=C(N[C@H](c1ccccn1)C(F)(F)F)c1cccc(Cc2ccc(F)cc2)n1` with its measured pEC50.
A. 7.69

Q. Annotate the compound `CCC(CC)(NC(=O)c1ccc(Cl)c(OCC2CC2)n1)C(=O)NC` with its measured pEC50.
A. 6.75

Q. Annotate the compound `COC(=O)[C@H](CC1CC1)NC(=O)c1ccc(C2CC2)c(OCC2CC2)n1` with its measured pEC50.
A. 8.15

Q. Annotate the compound `CNC(=O)[C@H](CC(C)C)NC(=O)c1cccc(-c2cccc(C(F)(F)F)c2)n1` with its measured pEC50.
A. 7.24

Q. Annotate the compound `O=C(c1ccc(N2CCC(F)(F)C2)c(OCC2CC2)n1)N1CCS(=O)(=O)CC1` with its measured pEC50.
A. 5.69

Q. Annotate the compound `CC(C)C[C@H](NC(=O)c1ccc(C2CC2)c(OCC2CC2)n1)C(N)=O` with its measured pEC50.
A. 8.92

Q. Annotate the compound `CNC(=O)[C@H](CC(C)(C)C)NC(=O)c1ccc(C2CC2)c(OCC2CC2)n1` with its measured pEC50.
A. 8.77

Q. Annotate the compound O=C(NC(c1ccccn1)C(F)(F)F)c1ccc(C2CC2)c(OCC(F)(F)F)n1 (centres unmarked) with its measured pEC50.
A. 6.23

* * *

# tested.target: human CB1 receptors (Homo sapiens (Human))
# method.summary: cAMP assay, CHO cells expressing human CB1 receptors
# Type: cell-based
# test.context: CHO cells expressing human CB1, cAMP; read-out: human CB1 EC50
test.readout: EC50

Q. Annotate the compound O=C(NC1CCCCC1O)c1cccc(C2CCCCC2)n1 (stereo not drawn) with its measured EC50.
A. > 10 µM

Q. Annotate the compound `CNC(=O)[C@H](CC(C)(C)C)NC(=O)c1ccc(C(F)(F)F)c(OCC2CCOCC2)n1` with its measured EC50.
A. 1.59 µM

Q. Annotate the compound `O=C(c1ccc(N2CCCC2)c(OCC2CC2)n1)N1CC2(COC2)C1` with its measured EC50.
A. > 10 µM

Q. Annotate the compound CC1(COc2nc(C(=O)NC(c3ccccn3)C(F)(F)F)ccc2Br)COC1 (stereo not drawn) with its measured EC50.
A. > 10 µM

Q. Annotate the compound `Cc1nc(C(C)(C)NC(=O)c2cccc(-c3ccc(Cl)cc3)n2)no1` with its measured EC50.
A. > 10 µM

Q. Annotate the compound `CC(C)C[C@H](NC(=O)c1cccc(-c2cccc(Cl)c2)n1)c1nccs1` with its measured EC50.
A. > 10 µM

Q. Annotate the compound CCOC(=O)C(CC)(CC)NC(=O)c1ccc(C(F)(F)F)c(OCC2CCCO2)n1 (stereo not drawn) with its measured EC50.
A. 0.518 µM

Q. Annotate the compound CCC(C)(NC(=O)c1ccc(C2CC2)c(OCC2CC2)n1)C(N)=O (stereo not drawn) with its measured EC50.
A. > 10 µM

Q. Annotate the compound `CC(C)(CCN1CCOCC1)NC(=O)c1ccc(N2CCCC2)c(OCC2CC2)n1` with its measured EC50.
A. > 10 µM

* * *

# tested.target: human CB2 receptors (Homo sapiens (Human), UniProt P34972)
# method.summary: cAMP assay, CHO cells expressing human CB2 receptors
# Format: cell-based
# test.context: CHO cells expressing human CB2, cAMP; read-out: human CB2 EC50
test.readout: pEC50
// pEC50: -log10(molar conc.)

Q. Annotate the compound `CCOC(=O)C(CC)(CC)NC(=O)c1ccc(Br)c(OCC2CC2)n1` with its measured pEC50.
A. 8.55

Q. Annotate the compound `O=C(c1ccc(N2CCCC2)c(OCC2CC2)n1)N1CCS(=O)(=O)CC1` with its measured pEC50.
A. 7.02

Q. Annotate the compound `CCC(CC)(NC(=O)c1cccc(-c2cccc(Cl)c2)n1)C(=O)N(C)C` with its measured pEC50.
A. 7.32

Q. Annotate the compound `O=C(c1ccc(N2CC(F)(F)C2)c(OCC2CC2)n1)N1CCC[C@H]1CO` with its measured pEC50.
A. 6.76

Q. Annotate the compound `Cc1nc(C(C)(C)NC(=O)c2ccc(C3CCCC3)c(OCC3CC3)n2)no1` with its measured pEC50.
A. 7.94

Q. Annotate the compound `CCC(CC)(NC(=O)c1ccc(N2CCCC2)c(OCC2CC2)n1)C(=O)O` with its measured pEC50.
A. 6.38

Q. Annotate the compound `O=C(N[C@H]1CCOC1=O)c1ccc(C2CC2)c(OCC2CC2)n1` with its measured pEC50.
A. 6.36

Q. Annotate the compound `CNC(=O)[C@H](CC(C)(C)C)NC(=O)c1ccc(N2CC(F)(F)C2)c(OCC2CC2)n1` with its measured pEC50.
A. 8.60

Q. Annotate the compound `Cc1nc([C@@H](NC(=O)c2ccc(C3CC3)c(OCC3CC3)n2)C2CC2)no1` with its measured pEC50.
A. 8.17

Q. Annotate the compound `CCC(CC)(NC(=O)c1ccc(C2CC2)c(Cc2ccc(F)cc2)n1)C(=O)O` with its measured pEC50.
A. 8.10

Q. Annotate the compound `CCC(CC)(NC(=O)c1ccc(C2CC2)c(OCC2CC2)n1)C(=O)NC` with its measured pEC50.
A. 8.05

Q. Annotate the compound Cc1nc(C(C)(NC(=O)c2ccc(N3CC(F)(F)C3)c(OCC3CC3)n2)C2CC2)no1 (centres unmarked) with its measured pEC50.
A. 8.24

Q. Annotate the compound `CC(C)(NC(=O)c1ccc(Cl)c(-c2cccc(Cl)c2)n1)c1nccs1` with its measured pEC50.
A. 6.98

Q. Annotate the compound `COC(=O)C(C)(C)NC(=O)c1ccc(N2CCCC2)c(OCC2CC2)n1` with its measured pEC50.
A. 8.34

Q. Annotate the compound `O=C(c1ccc(N2CCCC2)c(OCC2CC2)n1)N1CC2(COC2)C1` with its measured pEC50.
A. 6.37

Q. Annotate the compound `CC(C)(C#N)NC(=O)c1ccc(C2CC2)c(OCC2CC2)n1` with its measured pEC50.
A. 6.69

Q. Annotate the compound `CNC(=O)C(C)(C)NC(=O)c1ccc(N2CCC(F)(F)C2)c(OCC2CC2)n1` with its measured pEC50.
A. 6.87

Q. Annotate the compound `CC(C)(NC(=O)c1ccc(Cl)c(-c2cccc(Cl)c2)n1)c1ncco1` with its measured pEC50.
A. 6.29

Q. Annotate the compound `Cc1ccc(C(=O)NN2CCCCC2)nc1-c1cccc(Cl)c1` with its measured pEC50.
A. 6.49

Q. Annotate the compound `CC(C)C[C@H](NC(=O)c1cccc(S(=O)(=O)CC(C)C)n1)C(N)=O` with its measured pEC50.
A. 6.06

Q. Annotate the compound `O=C(Nc1ccccc1)c1cccc(-c2cccc(Cl)c2)n1` with its measured pEC50.
A. 6.38

Q. Annotate the compound `COc1ccc(C(=O)NC(C)(C)c2noc(C)n2)nc1-c1cccc(Cl)c1` with its measured pEC50.
A. 6.93

Q. Annotate the compound `O=C(NN1CCCCC1)c1ccc(C2CC2)c(OCC2CC2)n1` with its measured pEC50.
A. 5.83

Q. Annotate the compound `O=C(NN1CCCCC1)c1cccc(OCC2CC2)n1` with its measured pEC50.
A. 6.37

Q. Annotate the compound `NC(=O)[C@@H](NC(=O)c1ccc(C2CC2)c(OCC2CC2)n1)c1ccccc1` with its measured pEC50.
A. 8.00

Q. Annotate the compound `CC(C)(NC(=O)c1ccc(N2CC(O)C2)c(OCC2CC2)n1)c1nccs1` with its measured pEC50.
A. 7.82

Q. Annotate the compound `CCC(CC)(NC(=O)c1ccc(C2CC2)c(OCC2CC2)n1)C(=O)N1CCC1` with its measured pEC50.
A. 8.80

Q. Annotate the compound `CC(C)C[C@H](NC(=O)c1ccc(N2CC(F)(F)C2)c(OCC2CC2)n1)C(N)=O` with its measured pEC50.
A. 9.10

Q. Annotate the compound `CC(C)(NC(=O)c1ccc(N2CCCS2(=O)=O)c(OCC2CC2)n1)c1nccs1` with its measured pEC50.
A. 5.85

Q. Annotate the compound `O=C(NC1(c2nccs2)COC1)c1ccc(Br)c(OCC(F)(F)F)n1` with its measured pEC50.
A. 6.43

Q. Annotate the compound CCOC(=O)C(CC)(CC)NC(=O)c1ccc(C(F)(F)F)c(OCC2CCCO2)n1 (centres unmarked) with its measured pEC50.
A. 8.64

Q. Annotate the compound `O=C(NN1CCCCC1)c1ccc(Cl)c(-c2cccc(Cl)c2)n1` with its measured pEC50.
A. 6.67

Q. Annotate the compound `CNC(=O)[C@@H](NC(=O)c1ccc(C2CC2)c(OCC2CCOCC2)n1)C(C)(C)C` with its measured pEC50.
A. 8.85

Q. Annotate the compound CC(C)(NC(=O)c1ccc(C2CCOC2)c(-c2cccc(Cl)c2)n1)c1nccs1 (centres unmarked) with its measured pEC50.
A. 6.99

Q. Annotate the compound `Cc1nc([C@@H](CC(C)C)NC(=O)c2ccc(C3CC3)c(OCC3CC3)n2)no1` with its measured pEC50.
A. 7.66

The measured values listed here are drawn from patent US9290451B2.
